- tgt: T1, monovalent hVISTA-ECD (human VISTA extracellular domain with His tail) (human, UniProt Q9H7M9 33-193)
- T1 construct: analyte flowed over captured antibody; also called huVISTA-His
- testMethodNotes: SPR, pH 6.0, average
Could you please mark criterion met for values of Kd below 4 nM and criterion not met for values at or above it?

Example entries begin here.
| binder | classAssignment |
| --- | --- |
| P1-070976 (41F11_VH_T28P/Y50W/S55E/D95H/L96E/P97E/Y100E; Vk_A64G) (antibody, human IgG1, kappa, V domains shown, IgG1.3; also called P1-070976-7; acidic pH selective VISTA.4 progeny) VH: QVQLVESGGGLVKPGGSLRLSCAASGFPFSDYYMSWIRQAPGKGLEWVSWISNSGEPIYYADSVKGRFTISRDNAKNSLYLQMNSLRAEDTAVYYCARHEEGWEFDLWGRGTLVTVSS VL: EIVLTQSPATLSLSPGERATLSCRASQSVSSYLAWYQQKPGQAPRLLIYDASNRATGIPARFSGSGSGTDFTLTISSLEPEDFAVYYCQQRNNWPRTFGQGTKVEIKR | criterion not met |
| VISTA.4 A64G (41F11 Vk:A64G) (antibody, human IgG1, kappa, V domains shown, IgG1.3; also called P1-061520; P1-061520-10) VH: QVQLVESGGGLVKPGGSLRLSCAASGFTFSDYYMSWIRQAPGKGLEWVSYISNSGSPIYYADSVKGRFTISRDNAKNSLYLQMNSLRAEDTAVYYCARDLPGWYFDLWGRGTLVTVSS VL: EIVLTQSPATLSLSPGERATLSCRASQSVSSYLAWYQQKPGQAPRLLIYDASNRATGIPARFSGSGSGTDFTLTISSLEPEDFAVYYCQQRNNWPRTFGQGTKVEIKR | criterion not met |
| P1-071799 (P1-070976_H95D) (antibody, human IgG1, kappa, V domains shown, IgG1.3) VH: QVQLVESGGGLVKPGGSLRLSCAASGFPFSDYYMSWIRQAPGKGLEWVSWISNSGEPIYYADSVKGRFTISRDNAKNSLYLQMNSLRAEDTAVYYCARDEEGWEFDLWGRGTLVTVSS VL: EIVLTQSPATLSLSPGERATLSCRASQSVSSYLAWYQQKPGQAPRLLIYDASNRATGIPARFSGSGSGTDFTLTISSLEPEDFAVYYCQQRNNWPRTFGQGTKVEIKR | criterion not met |
| P1-071801 (P1-070976_E97P) (antibody, human IgG1, kappa, V domains shown, IgG1.3) VH: QVQLVESGGGLVKPGGSLRLSCAASGFPFSDYYMSWIRQAPGKGLEWVSWISNSGEPIYYADSVKGRFTISRDNAKNSLYLQMNSLRAEDTAVYYCARHEPGWEFDLWGRGTLVTVSS VL: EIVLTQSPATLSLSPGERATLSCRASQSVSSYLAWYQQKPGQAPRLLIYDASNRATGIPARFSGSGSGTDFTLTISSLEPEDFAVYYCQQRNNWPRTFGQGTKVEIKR | criterion met |

Turning now to a further record.
Incoming: Identify whether the binder P1-065333 (41F11_VH_T28P/Y50W/S55E/L96E/Y100E VK_A64G) (antibody, human IgG1, kappa, V domains shown, IgG1.3; also called P1-065333-1; VISTA.4 pH-independent progeny) VH: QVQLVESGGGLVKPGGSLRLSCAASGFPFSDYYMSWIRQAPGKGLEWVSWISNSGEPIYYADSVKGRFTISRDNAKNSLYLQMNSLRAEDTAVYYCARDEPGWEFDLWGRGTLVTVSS VL: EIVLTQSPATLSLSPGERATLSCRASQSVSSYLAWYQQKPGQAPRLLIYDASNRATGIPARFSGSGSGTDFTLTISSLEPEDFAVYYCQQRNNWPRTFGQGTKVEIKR records Kd below 4 nM.
Outgoing: criterion met
